From various publications: IC50 for Cathepsin K (Homo sapiens).
Could you mark each record True if its IC50 falls strictly under 0.8 nM, and False if it equals or exceeds it?

1) N#CC1(NC(=O)C2(NC(=O)c3cc4ccc(-c5ccc6c(c5)OCO6)cc4o3)CCC(F)(F)CC2)CC1 ... False
2) Cc1cc(-c2ccc3cc(C(=O)NC4(C(=O)NC5(C#N)CC5)CCC(F)(F)CC4)oc3c2)ccc1-n1cncn1 ... True
3) COC[C@H]1C[C@@H](NC(=O)c2nc(-c3cc(C#N)ccc3OC3CC3)co2)CN1C#N ... False
4) C[C@@]1(NC(=O)[C@H](CC2CCCCC2)NC(=O)CCCCCNC(=NC(=O)OCc2ccccc2)NC(=O)OCc2ccccc2)C(=O)N[C@H]1Oc1ccccc1 ... False
5) N#CC1(NC(=O)C2(NC(=O)c3cc4ccc(-c5ccc(-n6cncn6)cc5)cc4o3)CCCCC2)CC1 ... False
6) COC[C@@H]1C[C@@H](NC(=O)c2ncc(-c3cc(C#N)ccc3OC(F)(F)F)o2)CN1C#N ... False
7) N#CC1(NC(=O)C2(NC(=O)c3cc4ccc(-c5ccc(C6(N)COC6)cc5)cc4o3)CCC(F)(F)CC2)CC1 ... True
8) CN1CCN(C(=O)CN2Cc3cnc(C#N)nc3N(CC(C)(C)C)C2=O)CC1 ... False

###

pIC50: −log10 of the molar value.
From various publications: pIC50 for UniProt P43235.
measurement.type: pIC50

1) CC(C)[C@@H]1NC(=O)/C=C/[C@@H](NC(=O)[C@@H](NC(=O)OCc2ccccc2)C(C)C)COC(=O)[C@H](Cc2ccc(O)cc2)NC1=O ... > 5.52
2) N#CC1(NC(=O)C2(NC(=O)c3cc4ccc(-c5csc(N6CCOC6=O)n5)cc4o3)CCCCC2)CC1 ... 9.10
3) N#CC(NC(=O)[C@@H]1CCCN(C(=O)OCc2ccccc2)N1C(=O)CCNC(=O)Cc1ccccc1)c1cccc(Oc2ccccc2)c1 (stereo partly drawn) ... 5.00 to 6.00
4) CC(C)[C@@H]1NC(=O)/C=C/[C@@H](NC(=O)[C@@H](NC(=O)OC(C)(C)C)C(C)C)COC(=O)[C@H](Cc2ccc(O)cc2)NC1=O ... > 5.52
5) CC(C)[C@@H]1NC(=O)/C=C/[C@@H](NC(=O)CNC(=O)[C@H](Cc2ccc(O)cc2)NC(=O)OC(C)(C)C)COC(=O)[C@H](Cc2ccc(O)cc2)NC1=O ... > 5.52
6) N#CC(OC(=O)[C@@H]1CCCNN1C(=O)CCNC(=O)Cc1ccccc1)c1cccc(Oc2ccccc2)c1 (mixture of isomers) ... 5.00 to 6.00
